Please go through the items and note down their cell viability.
System: Caco-2
Assay: cell viability relative to DMSO; higher = less toxic
Conditions: 72 h; 1 nM
Give bare numbers, in %.

Below: 8 compounds and their reported cell viability.
# compound, measurement
data = [
    ("CCCCCS(=O)(=O)CCCCCCCCCCn1c(-c2ccc(O)cc2)c(C)c2cc(O)ccc21", 86.2),
    ("O=C(Nc1cccc(Cl)c1)Nc1ncc(CCNc2ncnc3ccsc23)s1", 92.8),
    ("CC[C@]1(O)C[C@@H]2CN(CCc3c([nH]c4ccccc34)[C@@](C(=O)OC)(c3cc4c(cc3OC)N(C)[C@H]3[C@@](O)(C(=O)OC)[C@H](OC(C)=O)[C@]5(CC)C=CCN6CC[C@]43[C@@H]65)C2)C1 [Vinblastine (sulfate)]", 90.3),
    ("NCC(=O)N[C@@H](CCC(N)=O)C(=O)O", 95.5),
    ("CO/N=C(\\C(=O)N[C@@H]1C(=O)N2C(C(=O)O)=C(COC(N)=O)CS[C@H]12)c1ccco1 [CEFUROXIME SODIUM]", 106),
    ("CCn1cc(C(=O)O)c(=O)c2ccc(-c3ccncc3)cc21", 102),
    ("CN(CCc1ccc(Cl)c(Cl)c1)CCN1CCCC1", 101),
    ("COc1cc2cc(c1Cl)N(C)C(=O)C[C@H](OC(=O)C(C)C)[C@]1(C)O[C@@H]1[C@H](C)[C@@H]1C[C@@](O)(NC(=O)O1)[C@H](OC)/C=C/C=C(\\C)C2", 45),
]

Report cell viability for each item below.
1. NCCCCCCCCCCNS(=O)(=O)c1cccc2c(Cl)cccc12
2. O=C1NCC2(CCN(CCc3ccccc3)CC2)O1 [fenspiride]

[108, 99]

Look at each compound and report its cell viability.
1. CCOC(CN1CCN(CC(C)C(=O)c2ccccc2)CC1)c1ccccc1 (configuration not stated)
2. CN1CCN(C(=O)O[C@H]2c3nccnc3C(=O)N2c2ccc(Cl)cn2)CC1
3. O=C1C2CCN(CC2)C1(CO)CO
4. O=C(O)CCCc1c[nH]c2ccccc12
5. CC(=O)[C@H]1CC[C@H]2[C@@H]3CC[C@H]4C[C@](C)(O)CC[C@]4(C)[C@H]3CC[C@]12C
6. CC(C)CC(NC(=O)OCC1c2ccccc2-c2ccccc21)C(=O)O (stereo in doubt)
7. Cc1cc(C(=O)Nc2cccc(C(=O)Nc3cccc(C(F)(F)F)c3)c2)on1

102
93.8
95.1
99.4
95
85.2
96.2
